Taken from the supplement of paper PMC9170038.

# Test system: MS2 coat protein
# assay remarks: apparent KD of MS2 coat protein; designed switch direction (-1 OFF switch, 1 ON switch): -1; higher = weaker reporter binding
# conditions: input ligand: FMN 200 uM
observed property: apparent KD of MS2 coat protein (µM)
Write it as a number; the unit µM goes unstated.

AUUGUUUAUGUAGGAUAUGCCUGGCGUGCCUUCGCAGAAGGACAUGAGGAUCACCCAUGUAUUGCGGUCUGCGUUCAGAUCGCC [salish99_ExNG1_r4_027] (Eterna round: R96, puzzle: Exclusion NG 1): 0.0213
AGUAGUUCAGGAUAUGAUGUUAAAUACAUGAGGAUCACCCAUGUAGAUCCUGAAUUUACAUCAGAAGGGAAUAACU [JR_Ex5_Sub082] (Eterna round: R97, puzzle: Exclusion 5): 0.0917

Let's switch to this sequence now.
Query :: Find the measured apparent KD of MS2 coat protein: item ACAUGUAAUGCAGGAUAUCGGACACAUGAGGAUCACCCAUGUGACCAGAGGUAUUGCUAAGAGUCUGAGAAGGGUAUGUACAUG [Ex NG2 #50] (Eterna round: R96, puzzle: Exclusion NG 2) , target or system MS2 coat protein.
Result :: 0.02

----------
Listed here are sequences together with their documented apparent KD of MS2 coat protein.
# Tested on: MS2 coat protein
# assay remarks: apparent KD of MS2 coat protein; designed switch direction (-1 OFF switch, 1 ON switch): -1; higher = weaker reporter binding
# conditions: input ligand: FMN 200 uM
State the answer as a number, implicitly in nM.

AAGGGUGCUUUUAGAACGACAUGAGGAUCACCCAUGUAGACUGAGGAUAUCUACUCCUAAGGACCGGAGAAGGCAGUGUAAUGC [Ex NG3 #64] (Eterna round: R96, puzzle: Exclusion NG 3): 57.8
UGAUCACAUGAGGAUCACCCAUGUCAGGAUAUCGUCACUGGAGCUUCGGCUCCAGUGACGAGAAGGGACAUAAU [E1/3-A1] (Eterna round: R97, puzzle: Exclusion 1): 77.4

Query :: Data request, read-out apparent KD of MS2 coat protein, for CCGACAAGCUGCUAAGGAUACAUGAGGAUCACCCAUGUCGGUAUCCGAGAGGUAUUGAAGUCAACCAUCGCUCGUCU [Eternabot (Original) Solution 49] (Eterna round: R97, puzzle: Sensor, turn-off variant 1)
Result :: 167

----------
# System: MS2 coat protein
# assay remarks: apparent KD of MS2 coat protein; higher = weaker reporter binding
# conditions: Eterna round: R107; input ligand: tryptophan 2.4 mM
observed property: apparent KD of MS2 coat protein (nM)
Give the number; nM is assumed, so skip it.

AAGACAUGAGGAUCACCCAUGUGUCAUGAAGGAGCGUCGGAAAUGACAGGUAGGUCGCAUGACCGUUGGCGCCGGAAACGGCGCA [SSAA #15]: 23.5

Query :: Requested read-out: apparent KD of MS2 coat protein. Entry: AAUUAUCACGGAAGGAGCGUCAUGAAAUUGAUACAUGAGGAUCACCCAUGUGAGUGUUAGAGACAGGUAGGUCGCCGAUUAUUGA [JR_AAArginiB_Sub028]
Result :: 31

----------
# Tested on: MS2 coat protein
# assay remarks: apparent KD of MS2 coat protein; higher = weaker reporter binding
# conditions: Eterna round: R107; input ligand: tryptophan 2.4 mM
observed property: apparent KD of MS2 coat protein
I'd appreciate it if you wrote the number followed by its unit.

AUACAUGAGGAUCACCCAUGUGAUGGCCGGCGAGGACCGGUACGGCCGCCACUCGUGAUCCGUCCUGAGAGCAAAGCUCUCAGCA [Macete]: 337 nM
UGUAACAUGAGGAUCACCCAUGUGAGUGAUACCAGAUAAGUAGUAGUCCCUUGGCAGCAUAUUGGGCGAGUGUAUAGUCUAUACG [Same State - Theophylline A (Freestyle 8)]: 150 nM

Query :: Please provide the recorded apparent KD of MS2 coat protein for AAUAAACAUGAGGAUCACCCAUGUAUGGAAGGAGCGGUAAAUAAACCAGGUAGGUCGCCAGUGUGAGGGUCAUCUAUGUAAUAAA [Exclusion - Arginine A (Freestyle 1)] , tested on MS2 coat protein.
Result :: 33.4 nM
